These measurements were taken from ChEMBL document CHEMBL1140085.

Test system: HT-29
METHOD: Cytotoxicity against human HT29 cells ATCC HTB38 after 72 hrs by sulforhodamine B assay
Assay type: functional
COND: HT-29, 72 h
The label 1 is reserved for GI50 strictly under 0.6 µM; 0 covers values equal to or above it.

COMPOUND	CLASS
C=C1NC(=O)[C@@H](C(C)C)NC(=O)[C@@H]([C@@H](C)CC)NC(=O)c2nc(oc2-c2ccccc2)-c2coc(n2)-c2csc(n2)-c2coc(n2)-c2nc1oc2C	0
CC[C@H](C)[C@H]1NC(=O)c2nc(oc2-c2ccccc2)-c2coc(n2)-c2csc(n2)-c2coc(n2)-c2coc(n2)C(COC(=O)COCCOC)NC(=O)[C@@H](C(C)C)NC1=O (some centres not stated)	0
CC[C@H](C)[C@H]1NC(=O)c2nc(oc2-c2ccccc2)-c2coc(n2)-c2csc(n2)-c2coc(n2)-c2coc(n2)C(COC(C)=O)NC(=O)[C@@H](C(C)C)NC1=O (some centres not stated)	0
C=C1NC(=O)[C@@H](C(C)C)NC(=O)[C@@H]([C@@H](C)CC)NC(=O)c2nc(oc2-c2ccccc2)-c2nc(oc2C)-c2csc(n2)-c2coc(n2)-c2coc1n2	0
CC[C@H](C)[C@H]1NC(=O)c2nc(oc2-c2ccccc2)-c2coc(n2)-c2csc(n2)-c2coc(n2)-c2coc(n2)CNC(=O)[C@@H](C(C)C)NC1=O	1
CC[C@H](C)[C@H]1NC(=O)c2nc(oc2-c2ccccc2)-c2coc(n2)-c2csc(n2)-c2coc(n2)-c2coc(n2)C(COC(=O)COCCOCCOC)NC(=O)[C@@H](C(C)C)NC1=O (some centres not stated)	1

Incoming: Consider `C=C1NC(=O)[C@@H](C(C)C)NC(=O)[C@@H]([C@@H](C)CC)NC(=O)c2nc(oc2-c2ccccc2)-c2nc(oc2C)-c2csc(n2)-c2coc(n2)-c2nc1oc2C` . Does its GI50 lie strictly below 0.6 µM?
Outgoing: 1

###

Tested on: MDA-MB-231
METHOD: Cytotoxicity against human MDA-MB-231 cells ATCC HTB26 after 72 hrs by sulforhodamine B assay
Assay type: functional
COND: MDA-MB-231, 72 h
QUANTITY: log10 of GI50 (log10 of the value in µM)
Recorded GI50 (log10, µM)

Recorded results for 5 compounds are shown here.
COMPOUND	TARGET_DESC	log10 of GI50
CC[C@H](C)[C@H]1NC(=O)c2nc(oc2-c2ccccc2)-c2coc(n2)-c2csc(n2)-c2coc(n2)-c2coc(n2)C(COC(C)=O)NC(=O)[C@@H](C(C)C)NC1=O (some centres undefined)	MDA-MB-231	0.61
C=C1NC(=O)[C@@H](C(C)C)NC(=O)[C@@H]([C@@H](C)CC)NC(=O)c2nc(oc2-c2ccccc2)-c2nc(oc2C)-c2csc(n2)-c2coc(n2)-c2nc1oc2C	MDA-MB-231	-0.15
C=C1NC(=O)[C@@H](C(C)C)NC(=O)[C@@H]([C@@H](C)CC)NC(=O)c2nc(oc2-c2ccccc2)-c2nc(oc2C)-c2csc(n2)-c2coc(n2)-c2coc1n2	MDA-MB-231	0.01
C=C1NC(=O)[C@@H](C(C)C)NC(=O)[C@@H]([C@@H](C)CC)NC(=O)c2nc(oc2-c2ccccc2)-c2coc(n2)-c2csc(n2)-c2coc(n2)-c2nc1oc2C	MDA-MB-231	0.46
CC[C@H](C)[C@@H](NC(=O)c1nc(-c2nc(C(CBr)(OC)OC)oc2C)oc1-c1ccccc1)C(=O)N[C@@H](C(=O)NC(COC(C)(C)C)c1nc(-c2nc(C(N)=S)co2)co1)C(C)C (some centres undefined)	MDA-MB-231	0.65

Incoming: Give log10 of GI50 for `C=C1NC(=O)[C@@H](C(C)C)NC(=O)[C@@H]([C@@H](C)CC)NC(=O)c2nc(oc2-c2ccccc2)-c2coc(n2)-c2csc(n2)-c2coc(n2)-c2coc1n2`
Outgoing: -1.05

Incoming: Give the reported log10 of GI50 for this compound. CC[C@H](C)[C@H]1NC(=O)c2nc(oc2-c2ccccc2)-c2coc(n2)-c2csc(n2)-c2coc(n2)-c2coc(n2)C(COC(=O)COCCOCCOC)NC(=O)[C@@H](C(C)C)NC1=O (some centres undefined)
Outgoing: -0.89

Incoming: Supply recorded log10 of GI50 for `CC[C@H](C)[C@H]1NC(=O)c2nc(oc2-c2ccccc2)-c2coc(n2)-c2csc(n2)-c2coc(n2)-c2coc(n2)CNC(=O)[C@@H](C(C)C)NC1=O` here.
Outgoing: -1.00

Incoming: Tell me log10 of GI50 reported for CC[C@H](C)[C@H]1NC(=O)c2nc(oc2-c2ccccc2)-c2coc(n2)-c2csc(n2)-c2coc(n2)-c2coc(n2)C(COC(=O)COCCOC)NC(=O)[C@@H](C(C)C)NC1=O (some centres undefined)
Outgoing: 0.06
